The following molecules are listed with their measured NADPH fluorescence slope values.
target: Voltage-gated potassium channel subunit beta-2 (Rattus norvegicus); assay: KvBeta positive modulators, primary screen, biochemical, NADPH fluorescence (AID 623); conditions: Recombinant KvBeta, NADPH fluorescence decrease slope, 10 min; at 10 µM; hits give low values;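 note: fluorescence intensity change per second fitted from 20 to 320 s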
Answer as a number with no unit attached.

Previously resolved entries follow.
Report NADPH fluorescence slope under test system Voltage-gated potassium channel subunit beta-2 (Rattus norvegicus) for CCOC(=O)C1CCN(C(C)=C2C(=O)c3ccccc3C2=O)CC1 .
-3.2e-05

Report NADPH fluorescence slope under test system Voltage-gated potassium channel subunit beta-2 (Rattus norvegicus) for CSc1sc(C(=O)O)c2c1C(=O)CCC2 .
-0.000199

Report NADPH fluorescence slope under test system Voltage-gated potassium channel subunit beta-2 (Rattus norvegicus) for COCCNc1oc(-c2ccc(Cl)cc2)nc1C#N .
9.3e-06

Report NADPH fluorescence slope under test system Voltage-gated potassium channel subunit beta-2 (Rattus norvegicus) for CCc1cn([C@H]2C[C@H](O)[C@@H](CO)O2)c(=O)[nH]c1=O .
5.1e-06

Now, please, on to the next molecule.
Report NADPH fluorescence slope under test system Voltage-gated potassium channel subunit beta-2 (Rattus norvegicus) for CCC1CCCCN1c1nc(-c2cccc(OC)c2O)nc2ccccc12 (centres undefined) .
-0.000132

* * *

The following molecules are listed with their measured NADPH fluorescence slope values.
target: Voltage-gated potassium channel subunit beta-2 (Rattus norvegicus); test: KvBeta positive modulators, primary screen, biochemical, NADPH fluorescence (AID 623); conditions: Recombinant KvBeta, NADPH fluorescence decrease slope, 10 min; at 10 µM; hits give low values;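 note: fluorescence intensity change per second fitted from 20 to 320 s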
Answer as a number with no unit attached.

# return recorded NADPH fluorescence slope for entry CCCC(=O)N(Cc1cc2ccccc2[nH]c1=O)c1ccccc1OC
-8.5e-06

***
# return recorded NADPH fluorescence slope for entry Fc1ccc(OCCOCCNCC2CCCO2)cc1 (stereo unspecified)
-4.4e-05

# return recorded NADPH fluorescence slope for entry CCOC(=O)/C(C#N)=C1\Nc2ccccc2N=C1N(CC(C)C)CC(C)C
-3.1e-05

* * *

target: Dual specificity protein phosphatase 6 (Homo sapiens) (UniProt Q16828); experiment: DUSP6 inhibitors restoring Erk phosphorylation by chemical complementation, primary imaging in DUSP6-transfected HeLa (AID 609); conditions: HeLa MKP-3 transfected, phospho-Erk imaging KS statistic; at 10 µM; hits give high values; cells stimulated with TPA for 15 min;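 note: phospho-Erk level distribution per well compared with pooled transfected vehicle control wells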
Sequence (Q16828 whole entry, looked up): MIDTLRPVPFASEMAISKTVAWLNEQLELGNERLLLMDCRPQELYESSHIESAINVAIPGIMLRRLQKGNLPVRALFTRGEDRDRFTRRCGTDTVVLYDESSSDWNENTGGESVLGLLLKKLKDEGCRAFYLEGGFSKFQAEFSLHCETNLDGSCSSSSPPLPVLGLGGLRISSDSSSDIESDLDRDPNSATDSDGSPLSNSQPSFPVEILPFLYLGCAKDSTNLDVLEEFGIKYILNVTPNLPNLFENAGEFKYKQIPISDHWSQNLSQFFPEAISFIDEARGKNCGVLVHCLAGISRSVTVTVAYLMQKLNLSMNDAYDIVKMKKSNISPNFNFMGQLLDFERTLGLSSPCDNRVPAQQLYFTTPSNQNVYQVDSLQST
result_type: inhibition (%)
Report the figure in % without appending any unit label.

Report inhibition under test system Dual specificity protein phosphatase 6 (Homo sapiens) (UniProt Q16828) for CCC(CC)C1C(C#N)=C(N)Oc2n[nH]c(C)c21 (centres undefined) .
5.57

Report inhibition under test system Dual specificity protein phosphatase 6 (Homo sapiens) (UniProt Q16828) for CCOc1ccc(S(=O)(=O)N(C)C)cc1-c1nc2c(C(C)(C)C)nn(C)c2c(=O)[nH]1 .
17.3

Report inhibition under test system Dual specificity protein phosphatase 6 (Homo sapiens) (UniProt Q16828) for CCc1cn([C@H]2C[C@H](O)[C@@H](CO)O2)c(=O)[nH]c1=O .
9.37

Now, please, on to the next compound.
Report inhibition under test system Dual specificity protein phosphatase 6 (Homo sapiens) (UniProt Q16828) for CC(=NC1CCCC1)c1c(C)[nH]n(-c2nc3ccccc3s2)c1=O .
-1.12

// data source = PubChem BioAssay
